assay: Quantitative High-Throughput drug screen in 47 multiple myeloma cell lines against the NCATS MIPE library collection: KMS12BM_JCRB cell viability assay (AID 1918971); details: KMS12BM myeloma viability, CellTiter-Glo ATP, 48 h; series mostly up to 45.8 µM; note: nearly all actives have a fitted effect of over 35% in size
Records with an inconclusive call do not appear. Activity calls are given as the source filed them. Calls come from the whole dose curve; as a rule, active = well fitted cell-killing curve with a large enough effect; inconclusive = small, poorly fitted or top-dose-only effect, or effect the other way; inactive = no such curve, though single readings can be large or run the other way.
Hi! Could you answer with just one of these? active, inactive

CCNC(=O)c1cc2c(-c3cc(OCCN4CCCC4)c(Cl)cc3Cl)nc(N)nc2s1
active
CC(=O)O[C@H]1C[C@@H]2CC[C@H]3[C@H]4C[C@H]([N+]5(C)CCCCC5)[C@@H](OC(C)=O)[C@@]4(C)CC[C@@H]3[C@@]2(C)C[C@H]1[N+]1(C)CCCCC1
inactive
CNC(=O)c1cccc(-c2ccc3c(N4CCOC[C@H]4C)nc(N4CCOC[C@H]4C)nc3n2)c1
active
COc1ccc(C[C@@H](C)[C@@H](C)Cc2ccc(OC)c(OC)c2)cc1OC
active

Moving on to the next compound.
(Q) For `O=c1c(O)c(-c2ccc(O)c(O)c2)oc2cc(O)ccc12` , which call appears in the assay record?
(A) active

###

assay: Quantitative High-Throughput drug screen in 47 multiple myeloma cell lines against the NCATS MIPE library collection: XG1_PLB cell viability assay (AID 1919866); conditions: CellTiter-Glo ATP, 48 h; series mostly up to 45.8 µM; note: nearly all actives have a fitted effect of over 35% in size
Records with an inconclusive call do not appear. Calls of active or inactive are those of the source. Calls follow the shape of the dose curve; as a rule, active = well fitted cell-killing curve with a large enough effect; inconclusive = small, poorly fitted or top-dose-only effect, or effect the other way; inactive = no such curve, though single readings can be large or run the other way. Residues, ends and D or L forms follow the SMILES beside them. *: point of attachment. Cbz = O=C(OCc1ccccc1)*
Choose the fitting class; nothing outside active, inactive is accepted.

Solved entries (count: 6):
CC(C)C[C@@H](C=O)NC(=O)[C@H](CC(C)C)NC(=O)[C@H](CC(C)C)NC(=O)OCc1ccccc1 (Cbz-Leu-Leu-Leu-aldehyde)
active
CC[C@H]1OC(=O)[C@H](C)[C@@H](O[C@H]2C[C@@](C)(OC)[C@@H](O)[C@H](C)O2)[C@H](C)[C@@H](O[C@@H]2O[C@@H](C)C[C@H](N(C)C)[C@@H]2O)[C@](C)(O)C[C@@H](C)C(=O)[C@H](C)[C@@H](O)[C@]1(C)O
active
O=C1NC(=O)C(=Cc2ccc3nccc(-c4ccncc4)c3c2)S1
active
O=C(O)c1ccc(Nc2ncc3c(n2)-c2ccc(Cl)cc2C(c2c(F)cccc2F)=NC3)cc1
active
O=C1NC(O)CCN1[C@@H]1O[C@H](CO)[C@H](O)[C@H]1O (some centres not stated)
active
CN(N=O)C(=O)N[C@H]1C(O)OC(CO)[C@@H](O)[C@H]1O (some centres not stated)
inactive

(Q) Assay outcome for `COC(=O)[C@@H]1CC2=CC(=O)CC[C@]2(C)[C@@]23O[C@@H]2C[C@@]2(C)[C@H](CC[C@@]24CCC(=O)O4)[C@@H]13` : what was it?
(A) inactive

###

assay: qHTS of pediatric cancer cell lines to identify multiple opportunities for drug repurposing: Primary screen for A673 cells (AID 1347092); settings: A673 Ewing sarcoma viability, CellTiter-Glo ATP luminescence, 48 h; series mostly up to 46 µM; note: nearly all actives have a fitted effect of over 45% in size
Results filed as inconclusive are left out. Activity calls are given as the source filed them. Calls come from the whole dose curve; as a rule, active = well fitted cell-killing curve with a large enough effect; inconclusive = small, poorly fitted or top-dose-only effect; inactive = no such curve, though single readings can be large or run the other way.
Classes to choose from: active, inactive

Answered examples (8):
CO[C@@H]1[C@@H](O)[C@H](O)[C@@H](n2c3c(Cl)cccc3c3c4c(c5c6cccc(Cl)c6[nH]c5c32)C(=O)NC4=O)O[C@@H]1CO
active
N#Cc1c(C2CCNCC2)cc(-c2c(O)cccc2OCC2CC2)nc1N
active
CC(C)(C)[N+]([O-])=Cc1ccc(S(=O)(=O)O)cc1S(=O)(=O)O
inactive
C[C@H](CCC(=O)O)[C@H]1CCC2C3C[C@H](O)[C@@H]4C[C@H](O)CC[C@]4(C)C3CC[C@@]21C (stereo not given in full)
inactive
Cn1cc(C[C@@H](N)C(=O)O)c2ccccc21
inactive
O=C(O)C=Cc1ccc(Cn2ccnc2)cc1
inactive
CCCCCCCCCCCCc1ccc(S(=O)(=O)Nc2nncs2)cc1
inactive
CC(=O)N[C@@H]1[C@H](O[C@@H]2c3ccc(c(Cl)c3)Oc3cc4cc(c3O[C@H]3O[C@H](CO)[C@@H](O)[C@H](O)[C@H]3NC(=O)CCCCCCCC(C)C)Oc3ccc(cc3Cl)C[C@H]3NC(=O)[C@H](N)c5ccc(O)c(c5)Oc5cc(O)cc(c5)[C@H](NC3=O)C(=O)N[C@H]4C(=O)N[C@H]3C(=O)N[C@@H]2C(=O)N[C@@H](C(=O)O)c2cc(O)cc(O[C@H]4O[C@H](CO)[C@@H](O)[C@H](O)[C@H]4O)c2-c2cc3ccc2O)O[C@H](CO)[C@@H](O)[C@@H]1O
inactive

(Q) Call for entry `COc1cc(C(C)C)c(Oc2cnc(NC(CO)CO)nc2N)cc1I` :
(A) active

(Q) Which outcome was entered for the molecule O=C1CSC(=O)N1C(CCc1ccncc1)COc1ccc(-c2cccc([N+](=O)[O-])c2)cc1 (stereo not given) in this test?
(A) active

(Q) For `CCCCCCCCc1ccc(CCC(N)(CO)CO)cc1` , what call appears in the results of this test?
(A) active
